Tested on: CCRF-CEM leukemia
Assay: NCI-60 one-dose screen, 48 h
Details: 10 µM unless noted
Compounds without any hit were thinned out: in the full panel of roughly 83,000, 20% have a hit. Activity calls are given as the source filed them. How the source made its calls: active means growth percent below 10; inactive means the rest.
Outcomes: active, inactive

{"columns": ["Compound", "Class Assignment"],
 "data": [
  ["CS(=O)(=O)c1ccc(-c2nc3ccccc3n2CC(=O)N/N=C/c2ccccc2)cc1", "inactive"],
  ["Cc1ccc(S(=O)(=O)OCC#CCOS(=O)(=O)c2ccc(C)cc2)cc1", "active"],
  ["O=C(Cn1nc(-c2cccc3ccccc23)ccc1=O)NCc1cccc(Cl)c1", "inactive"],
  ["CN(C)Cc1cc(C(C)(C)C)cc(Br)c1O", "inactive"],
  ["Cc1nn(C)c2ncnc(N/N=C/c3cccc(O)c3O)c12", "active"],
  ["Fc1cccc(CNc2c3ccccc3nc3ccccc23)c1", "inactive"],
  ["CCCC(=O)NC(c1ccc2c(c1)OCO2)c1cc(Cl)c2cccnc2c1O (configuration not stated)", "inactive"],
  ["O=C(OCc1ccc2c(Cl)cc(Cl)c(O)c2n1)N1CCN(C(=O)c2cc3ccccc3[nH]2)CC1", "inactive"],
  ["CN(C)/C(N)=N/N=C(\\c1ccccc1)c1ccccn1", "inactive"],
  ["CC(O)CNC(Cc1ccccc1)c1ccc2c(c1)OCO2 (configuration not stated)", "inactive"],
  ["CNCC[C@H](Oc1cccc2ccccc12)c1cccs1", "inactive"],
  ["c1ccc(-c2nc3ccccc3[nH]2)c(OCCCCCOc2ccccc2-c2nc3ccccc3[nH]2)c1", "active"],
  ["O=[N+]([O-])c1c(O)c(Cl)cc(Cl)c1Cl", "inactive"],
  ["C=C1C(=O)O[C@H]2[C@H]1CC/C(COC(=O)C(=O)c1c[nH]c3ccc(Cl)cc13)=C\\CC[C@@]1(C)O[C@@H]21", "active"],
  ["Cc1[nH]c(C(=O)Nc2ccccc2OC2CCN(CCN3CCOCC3)CC2)c(Cl)c1Cl", "inactive"],
  ["COc1cc(N2C(=O)[C@H](Cl)C2c2ccc(SC)cc2)cc(OC)c1OC (some centres not stated)", "inactive"],
  ["FC(F)(F)c1[nH]ncc1-c1nc2ccc3[nH]ncc3c2c2c1CCCC2", "active"]
]}
